Let's look at some binders and their measured % block, fractalkine induced chemotaxis.
TARGET: T1, human CX3CR1 (human, UniProt P49238 1-355)
T1 sequence: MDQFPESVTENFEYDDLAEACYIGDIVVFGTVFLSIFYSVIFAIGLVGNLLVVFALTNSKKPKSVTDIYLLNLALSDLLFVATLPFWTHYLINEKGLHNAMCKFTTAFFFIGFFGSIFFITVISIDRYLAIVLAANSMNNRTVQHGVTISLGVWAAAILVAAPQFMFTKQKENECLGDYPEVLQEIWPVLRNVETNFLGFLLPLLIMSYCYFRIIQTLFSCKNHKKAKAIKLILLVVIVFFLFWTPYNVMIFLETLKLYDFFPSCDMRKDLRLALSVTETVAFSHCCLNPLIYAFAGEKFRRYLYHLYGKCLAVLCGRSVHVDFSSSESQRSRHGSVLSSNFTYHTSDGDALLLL
PROTOCOL_DETAILS: cell-based or functional assay

- BINDER: "CX3CR1BIIPMP54A12 (VHH, also called CX3CR1BII54A12; not shown: C-terminal c-myc and His6 tags) VHH: EVQLVESGGGSVQAGESLRLSCAASGSIFSSNAMAWYRQAPGKQRDLVAVINSVGITKYADSVKGRFTISGDNAKNTVYLQMNSLKPEDTAVYYCTSDARRGWDTRYWGQGTQVTVSS"
  % block, fractalkine induced chemotaxis: "84%"
- BINDER: "CX3CR1BIIPMP11H11 (VHH, family 9; also called CX3CR1BII11H11; not shown: C-terminal c-myc and His6 tags) VHH: EVQLVESGGGLVQAGGSLRLSCVASGRTFSSYAMGWFRQAPGKERAFVAGISGSASRKYYADSVKGRFTVSRDNARNTVYLQMNSLKPEDTAVYYCAASNSYPKVQFDYYGQGTQVTVSS"
  % block, fractalkine induced chemotaxis: "89%"
- BINDER: "CX3CR1BIIPMP66B02 (VHH, alexa647 label where used as labeled competitor (Table 23), also called CX3CR1BII66B02; C100CX3CR1BII66B02; not shown: C-terminal c-myc and His6 tags) VHH: EVQLVESGGGSVQAGESLRLSCAASGSIFSSNAMAWYRQAPGKRRDLVAAINSVGVTKYADSVKGRFTISRDNAKNTVYLQMNSLKPEDTAVYYCTSDPRRGWDTRYWGQGTQVTVSS"
  % block, fractalkine induced chemotaxis: "87%"
- BINDER: "CX3CR1BIIPMP54B3 (VHH, also called 54B03; not shown: C-terminal c-myc and His6 tags) VHH: EVQLVESGGGSVQAGESLRLSCAASGSIFSSNAMAWYRQAPGKQRDLVAAINSVGITKYADSVKGRFTISRDNAKNTVYLQMNSLKPEDTAVYYCTSDPRRGWDTRYWGQGTQVTVSS"
  % block, fractalkine induced chemotaxis: "73%"
- BINDER: "CX3CR1BIIPMP54D5 (VHH, also called 54D05; CX3CR1BII54D5; not shown: C-terminal c-myc and His6 tags) VHH: EVQLVESGGGSVQAGESLRLSCAASGSIFSSNAMAWYRQAPPGKQRDLVALINSVGITKYADSVKGRFTISSDNAKNTVYLEMNSLKPEDTAVYYCTSDGRRGWDTRYWGQGTQVTVSS"
  % block, fractalkine induced chemotaxis: "81%"

Now let's try a different one.
Which % block, fractalkine induced chemotaxis value is on record for CX3CR1BIIPMP54A7 (VHH, also called 54A07; not shown: C-terminal c-myc and His6 tags) VHH: EVQLVESGGGSVQAGESLRLSCAASGTIFSSNAMAWYRQAPGKQRDLVAGINSVDITKYADSVKGRFTISRDNAKNTVYLQMNSLKPEDTAVYYCTSDPRRGWNTRYWGQGTQVTVSS ?
45%
